# key: entry, value: viability at 0.1 µM
protocol summary: Cytotoxicity against mouse 3T3-L1 cells assessed as cell viability at 0.1 uM
Type: toxicity, cell-based
condition: read-out: Activity
test readout: viability at 0.1 µM

{"structure notation": "COc1cc(CC(=O)c2cccc(-c3ccc(F)cc3)c2)c(C(=O)O)c(O)c1CC=C(C)C", "reported measurement": "< 50%"}
{"structure notation": "COc1cc(CC(=O)c2cccc(-c3ccccc3C(F)(F)F)c2)c(C(=O)O)c(O)c1CC=C(C)C", "reported measurement": "< 50%"}

###

# key: entry, value: Activity
protocol summary: Induction of insulin-sensitizing activity in insulin-resistant human HepG2 cells assessed as glucose consumption at 0.1 uM (reference value: 5.83 +/-0.101 mM)
Assay type: functional

{"structure notation": "COc1cc(CC(=O)c2cccc(-c3ccccc3Cl)c2)c(C(=O)O)c(O)c1CC=C(C)C", "Activity (mM)": 8.371}
{"structure notation": "COc1cc(O)c(C(=O)O)c(CC(=O)c2cccc(-c3ccnc(Cl)c3)c2)c1CC=C(C)C", "Activity (mM)": 6.318}
{"structure notation": "COc1cc(CC(=O)c2cccc(-c3ccc(Cl)cc3)c2)c(C(=O)O)c(O)c1CC=C(C)C", "Activity (mM)": 8.138}
{"structure notation": "COc1cc(O)c(C(=O)O)c(CC(=O)c2cccc(-c3cccc(C(F)(F)F)c3)c2)c1CC=C(C)C", "Activity (mM)": 8.306}
{"structure notation": "COc1cc(CC(=O)c2cccc(-c3cccnc3)c2)c(C(=O)O)c(O)c1CC=C(C)C", "Activity (mM)": 6.93}
{"structure notation": "COc1cc(O)c(C(=O)O)c(CC(=O)c2cccc(C3CC3)c2)c1CC=C(C)C", "Activity (mM)": 6.002}
{"structure notation": "COc1cc(CC(=O)c2cccc(-c3ccnc(Cl)c3)c2)c(C(=O)O)c(O)c1CC=C(C)C", "Activity (mM)": 7.34}
{"structure notation": "COc1cc(O)c(C(=O)O)c(CC(=O)c2cccc(-c3ccsc3)c2)c1CC=C(C)C", "Activity (mM)": 6.047}
{"structure notation": "COc1ccc(-c2cccc(C(=O)Cc3c(CC=C(C)C)c(OC)cc(O)c3C(=O)O)c2)c(F)c1", "Activity (mM)": 6.928}

###

tested system: Peroxisome proliferator-activated receptor gamma (Homo sapiens) (UniProt P37231)
Sequence (P37231 whole entry): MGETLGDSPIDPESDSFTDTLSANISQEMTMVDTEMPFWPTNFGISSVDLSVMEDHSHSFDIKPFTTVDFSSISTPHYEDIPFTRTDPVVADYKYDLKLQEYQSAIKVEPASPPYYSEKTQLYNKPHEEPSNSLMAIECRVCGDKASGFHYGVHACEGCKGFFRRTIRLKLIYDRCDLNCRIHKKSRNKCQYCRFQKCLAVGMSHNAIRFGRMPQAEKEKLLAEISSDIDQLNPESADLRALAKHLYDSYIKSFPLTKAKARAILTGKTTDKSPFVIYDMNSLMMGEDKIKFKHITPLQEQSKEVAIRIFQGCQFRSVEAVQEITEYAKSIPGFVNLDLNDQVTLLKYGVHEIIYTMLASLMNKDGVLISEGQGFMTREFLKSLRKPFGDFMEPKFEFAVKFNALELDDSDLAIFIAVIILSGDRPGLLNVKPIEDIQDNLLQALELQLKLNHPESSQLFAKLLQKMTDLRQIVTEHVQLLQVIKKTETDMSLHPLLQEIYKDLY
protocol summary: Antagonist activity at PPAR-gamma (unknown origin) transfected in human HEK293 cells assessed as decrease in rosiglitazone-induced receptor transactivation at 1 uM by dual-luciferase reporter gene assay relative to control
Format: cell-based
test readout: inhibition (%)

{"structure notation": "COc1cc(O)c(C(=O)O)c(CC(=O)c2cccc(-c3ccsc3)c2)c1CC=C(C)C", "tested system": "Peroxisome proliferator-activated receptor gamma (Homo sapiens) (UniProt P37231)", "reported measurement": 24.3}
{"structure notation": "CCc1ccc(-c2cccc(C(=O)Cc3c(CC=C(C)C)c(OC)cc(O)c3C(=O)O)c2)cc1", "tested system": "Peroxisome proliferator-activated receptor gamma (Homo sapiens) (UniProt P37231)", "reported measurement": -8.3}
{"structure notation": "COc1cc(O)c(C(=O)O)c(CC(=O)c2cccc(-c3cccc(C(F)(F)F)c3)c2)c1CC=C(C)C", "tested system": "Peroxisome proliferator-activated receptor gamma (Homo sapiens) (UniProt P37231)", "reported measurement": -2.4}
{"structure notation": "COc1cc(O)c(C(=O)O)c(CC(=O)c2cccc(-c3cccnc3)c2)c1CC=C(C)C", "tested system": "Peroxisome proliferator-activated receptor gamma (Homo sapiens) (UniProt P37231)", "reported measurement": -3.8}
{"structure notation": "COc1cc(O)c(C(=O)O)c(CC(=O)c2cccc(-c3ccnc(Cl)c3)c2)c1CC=C(C)C", "tested system": "Peroxisome proliferator-activated receptor gamma (Homo sapiens) (UniProt P37231)", "reported measurement": 19.9}
{"structure notation": "COc1cc(CC(=O)c2cccc(-c3ccnc(Cl)c3)c2)c(C(=O)O)c(O)c1CC=C(C)C", "tested system": "Peroxisome proliferator-activated receptor gamma (Homo sapiens) (UniProt P37231)", "reported measurement": 12.7}
{"structure notation": "COc1cc(O)c(C(=O)O)c(CC(=O)c2cccc(-c3ccc(Cl)cc3)c2)c1CC=C(C)C", "tested system": "Peroxisome proliferator-activated receptor gamma (Homo sapiens) (UniProt P37231)", "reported measurement": 19.3}

Hey, just so you know, these numbers are from ChEMBL document CHEMBL5236599.
